# target-entity: IGF-1R (Homo sapiens (Human))
# Sequence (P08069 960-1367): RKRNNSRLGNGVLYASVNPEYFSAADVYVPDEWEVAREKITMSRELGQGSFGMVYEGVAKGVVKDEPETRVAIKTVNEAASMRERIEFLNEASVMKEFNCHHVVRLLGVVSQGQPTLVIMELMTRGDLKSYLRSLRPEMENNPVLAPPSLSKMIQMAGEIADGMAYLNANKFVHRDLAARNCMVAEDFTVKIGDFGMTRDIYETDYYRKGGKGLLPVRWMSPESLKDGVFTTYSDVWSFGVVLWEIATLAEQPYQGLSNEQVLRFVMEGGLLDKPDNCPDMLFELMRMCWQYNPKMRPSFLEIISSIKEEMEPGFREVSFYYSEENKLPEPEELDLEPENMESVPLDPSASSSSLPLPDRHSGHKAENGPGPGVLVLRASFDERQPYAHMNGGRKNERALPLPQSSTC
# test-protocol: Biochemical assay for inhibitors of IGF-1R kinase activity
# experimental-setup: 6 nM enzyme, 6 microM ATP, 10 microM peptide substrate
measured-quantity: IC50 (µM)
# number only, unit µM dropped from output

IN: I have this compound here, CN1CCN(c2ccc(C(=O)Nc3n[nH]c4ccc(Cc5cc(F)cc(F)c5)cc34)c(NC3CCCCC3)c2)CC1 , and I need its recorded IC50.
OUT: 6.07
